molecular target: human TrkB on CHO cells (CHO-K1-hTrkB/pSRE-Luc) (human) (UniProt Q16620); assay: cell-based or functional assay
Sequence (Q16620 32-822): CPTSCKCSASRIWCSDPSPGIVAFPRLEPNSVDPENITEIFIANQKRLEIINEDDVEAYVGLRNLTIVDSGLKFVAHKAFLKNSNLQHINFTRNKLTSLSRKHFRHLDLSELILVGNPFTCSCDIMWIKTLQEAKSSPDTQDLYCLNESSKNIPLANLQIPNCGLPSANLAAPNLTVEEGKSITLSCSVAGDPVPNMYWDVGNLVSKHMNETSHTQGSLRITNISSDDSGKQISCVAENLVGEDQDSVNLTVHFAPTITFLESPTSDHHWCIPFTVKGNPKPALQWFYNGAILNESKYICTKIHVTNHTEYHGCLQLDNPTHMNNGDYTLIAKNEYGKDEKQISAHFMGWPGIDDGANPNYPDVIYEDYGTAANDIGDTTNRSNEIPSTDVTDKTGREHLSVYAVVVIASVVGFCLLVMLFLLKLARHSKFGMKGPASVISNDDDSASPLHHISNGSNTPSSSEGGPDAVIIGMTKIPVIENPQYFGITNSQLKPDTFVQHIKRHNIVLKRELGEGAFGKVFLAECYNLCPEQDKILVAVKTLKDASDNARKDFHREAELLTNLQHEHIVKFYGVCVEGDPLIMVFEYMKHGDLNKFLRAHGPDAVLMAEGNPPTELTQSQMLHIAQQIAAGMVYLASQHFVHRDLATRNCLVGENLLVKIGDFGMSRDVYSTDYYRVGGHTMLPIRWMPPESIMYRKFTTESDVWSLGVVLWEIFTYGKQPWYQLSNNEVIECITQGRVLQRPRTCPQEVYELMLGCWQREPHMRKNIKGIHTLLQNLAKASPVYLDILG
For each of the binders below, state its BDNF activity in TrkBluciferase assay, EC50 [% or nM].
Could you give me the number in nM? Just the number is fine.

Value lookup for BDNF activity in TrkBluciferase assay, EC50 [% or nM]; key = pre-pro-BDNF(-RGR; T35N, Q79T)-T7-His6 (ligand) APMKEANIRGQGGLAYPGVRTHGTLESVNGPKAGSRGLTSLADTFEHVIEELLDEDQKVRPNEENNKDADLYTSRVMLSSQVPLEPPLLFLLEEYKNYLDAANMSMRVRRHSDPARRGELSVCDSISEWVTAADKKTAVDMSGGNVTVLEKVPVSKGQLKQYFYETKCNPMGYTKEGCRGIDKRHWNSTCRTTQSYVRALTMDSKKRIGWRFIRIDTSCVCTLTIKGSGMASMTGGQQMGHHHHHH
0.064

Value lookup for BDNF activity in TrkBluciferase assay, EC50 [% or nM]; key = pre-pro-BDNF(-RGR; T35N; G62N; Y63G)-T7-His6 (ligand) APMKEANIRGQGGLAYPGVRTHGTLESVNGPKAGSRGLTSLADTFEHVIEELLDEDQKVRPNEENNKDADLYTSRVMLSSQVPLEPPLLFLLEEYKNYLDAANMSMRVRRHSDPARRGELSVCDSISEWVTAADKKTAVDMSGGNVTVLEKVPVSKGQLKQYFYETKCNPMNGTKEGCRGIDKRHWNSQCRTTQSYVRALTMDSKKRIGWRFIRIDTSCVCTLTIKGSGMASMTGGQQMGHHHHHH
0.039

Value lookup for BDNF activity in TrkBluciferase assay, EC50 [% or nM]; key = pre-pro-BDNF(-RGR; G62N, Y63G, Q79T)-T7-His6 (ligand) APMKEANIRGQGGLAYPGVRTHGTLESVNGPKAGSRGLTSLADTFEHVIEELLDEDQKVRPNEENNKDADLYTSRVMLSSQVPLEPPLLFLLEEYKNYLDAANMSMRVRRHSDPARRGELSVCDSISEWVTAADKKTAVDMSGGTVTVLEKVPVSKGQLKQYFYETKCNPMNGTKEGCRGIDKRHWNSTCRTTQSYVRALTMDSKKRIGWRFIRIDTSCVCTLTIKGSGMASMTGGQQMGHHHHHH
0.13
